Origin of the recorded values: patent US20090218708A1

# assayName: Solubility of compound II in solvents
# Format: physicochemical
# conditionLabel: aqueous with cosolvent or surfactant or cyclodextrin; in 70% IPA/H2O
# Description: Compound II (2 g) was slowly dispersed in 70% IPA (20 mL) and water (14 mL) was added. […] The IPA was distilled using rotary evaporator to achieve an aqueous solution containing ca. […] of II. The concentrated aqueous solution was spray dried using a Buchi B-290 spray drier and the operating parameters were adjusted as follows: […]
reportedMetric: solubility

Problem: Name the reported solubility value associated with the molecule CCC(=O)[N-]S(=O)(=O)c1ccc(NC(=O)Cc2ccc(Br)c(Oc3cc(Cl)cc(C#N)c3)c2F)c(Cl)c1.[Na+] [II]
Solution: ~47 mg/mL
